molecular target: UniProt P29597
Sequence (P29597 whole entry): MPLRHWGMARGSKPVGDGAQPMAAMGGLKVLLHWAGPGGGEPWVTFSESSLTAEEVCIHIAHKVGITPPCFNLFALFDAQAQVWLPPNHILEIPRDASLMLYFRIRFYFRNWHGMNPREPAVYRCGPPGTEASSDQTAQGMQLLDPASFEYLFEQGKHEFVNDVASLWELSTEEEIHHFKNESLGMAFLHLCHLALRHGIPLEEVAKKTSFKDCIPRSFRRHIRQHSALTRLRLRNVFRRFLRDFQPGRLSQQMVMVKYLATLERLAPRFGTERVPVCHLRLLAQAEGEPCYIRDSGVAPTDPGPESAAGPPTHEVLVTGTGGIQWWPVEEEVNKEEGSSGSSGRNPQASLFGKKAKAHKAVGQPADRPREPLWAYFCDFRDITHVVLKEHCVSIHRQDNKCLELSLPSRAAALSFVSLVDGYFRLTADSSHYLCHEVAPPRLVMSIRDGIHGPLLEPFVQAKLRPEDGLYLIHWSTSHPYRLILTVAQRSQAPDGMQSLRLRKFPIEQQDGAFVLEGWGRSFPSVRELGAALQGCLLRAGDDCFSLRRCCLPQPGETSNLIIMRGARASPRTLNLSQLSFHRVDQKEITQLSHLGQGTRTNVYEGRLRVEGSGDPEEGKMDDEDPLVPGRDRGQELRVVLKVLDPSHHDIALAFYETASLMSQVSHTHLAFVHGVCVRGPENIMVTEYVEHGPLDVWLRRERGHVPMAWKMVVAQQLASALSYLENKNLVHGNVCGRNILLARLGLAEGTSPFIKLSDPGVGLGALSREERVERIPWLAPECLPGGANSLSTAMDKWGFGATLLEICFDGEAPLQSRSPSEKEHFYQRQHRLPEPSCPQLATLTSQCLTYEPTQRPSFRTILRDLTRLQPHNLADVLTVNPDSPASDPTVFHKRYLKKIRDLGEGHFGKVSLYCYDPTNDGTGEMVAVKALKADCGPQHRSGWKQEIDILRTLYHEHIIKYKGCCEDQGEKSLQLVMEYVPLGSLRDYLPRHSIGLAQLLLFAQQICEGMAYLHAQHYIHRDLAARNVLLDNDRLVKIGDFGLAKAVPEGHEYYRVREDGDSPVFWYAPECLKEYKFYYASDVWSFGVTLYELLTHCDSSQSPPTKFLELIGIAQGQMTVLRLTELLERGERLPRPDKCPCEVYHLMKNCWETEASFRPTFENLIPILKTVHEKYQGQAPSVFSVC
pIC50: −log10 of the molar value.
assay_readout: pIC50

Query :: Look up and report measured pIC50 (UniProt P29597) for the following molecule: CN1CCN(C[C@@H](NC(=O)C[C@H]2CNC(=O)c3cc(-c4cccc(Cl)c4)cn32)C2CCCCC2)CC1
Result :: < 5.00

====

This document collects pIC50 values reported for Serine/threonine-protein kinase pim-1 (Homo sapiens, UniProt P11309).
Formally, pIC50 is defined as -log10 of the concentration c, with c in mol/L.

- molecule: "CC(C)(C)CNC(=O)CC1CNC(=O)c2cc(-c3ccc(F)cc3)cn21 (racemic)"
  measured_number: 5.59
- molecule: "CC(C)(C)CNC(=O)CC1CNC(=O)c2cc(-c3cccc(F)c3)cn21 (racemic)"
  measured_number: 5.71
- molecule: "CN1CCN(C[C@@H](NC(=O)C[C@H]2CNC(=O)c3cc(-c4cccc(F)c4)cn32)C2CCCCC2)CC1"
  measured_number: 8.05
- molecule: "CC(C)(C)CNC(=O)CC1CNC(=O)c2cc(-c3ccccc3F)cn21 (racemic)"
  measured_number: 5.77

Now consider the entry below.
Query :: # return pIC50 of O=C(CC1CNC(=O)c2cc(-c3ccc(F)c(F)c3)cn21)NCc1ccco1 (racemic) (system: Serine/threonine-protein kinase pim-1 (Homo sapiens, UniProt P11309))
Sequence (P11309 whole entry): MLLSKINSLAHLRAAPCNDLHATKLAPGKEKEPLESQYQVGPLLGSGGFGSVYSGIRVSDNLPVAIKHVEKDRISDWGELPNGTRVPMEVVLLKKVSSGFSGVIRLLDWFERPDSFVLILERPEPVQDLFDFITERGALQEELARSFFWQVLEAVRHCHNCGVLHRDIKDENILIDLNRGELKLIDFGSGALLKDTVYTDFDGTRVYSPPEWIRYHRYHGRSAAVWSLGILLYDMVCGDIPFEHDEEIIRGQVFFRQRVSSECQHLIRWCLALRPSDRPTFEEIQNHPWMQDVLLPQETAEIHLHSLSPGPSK
Result :: 6.90

====

target: Inhibitor of nuclear factor kappa-B kinase subunit beta (Homo sapiens, UniProt O14920); experiment: Inhibition of IKK2 (unknown origin)
Sequence (O14920 whole entry): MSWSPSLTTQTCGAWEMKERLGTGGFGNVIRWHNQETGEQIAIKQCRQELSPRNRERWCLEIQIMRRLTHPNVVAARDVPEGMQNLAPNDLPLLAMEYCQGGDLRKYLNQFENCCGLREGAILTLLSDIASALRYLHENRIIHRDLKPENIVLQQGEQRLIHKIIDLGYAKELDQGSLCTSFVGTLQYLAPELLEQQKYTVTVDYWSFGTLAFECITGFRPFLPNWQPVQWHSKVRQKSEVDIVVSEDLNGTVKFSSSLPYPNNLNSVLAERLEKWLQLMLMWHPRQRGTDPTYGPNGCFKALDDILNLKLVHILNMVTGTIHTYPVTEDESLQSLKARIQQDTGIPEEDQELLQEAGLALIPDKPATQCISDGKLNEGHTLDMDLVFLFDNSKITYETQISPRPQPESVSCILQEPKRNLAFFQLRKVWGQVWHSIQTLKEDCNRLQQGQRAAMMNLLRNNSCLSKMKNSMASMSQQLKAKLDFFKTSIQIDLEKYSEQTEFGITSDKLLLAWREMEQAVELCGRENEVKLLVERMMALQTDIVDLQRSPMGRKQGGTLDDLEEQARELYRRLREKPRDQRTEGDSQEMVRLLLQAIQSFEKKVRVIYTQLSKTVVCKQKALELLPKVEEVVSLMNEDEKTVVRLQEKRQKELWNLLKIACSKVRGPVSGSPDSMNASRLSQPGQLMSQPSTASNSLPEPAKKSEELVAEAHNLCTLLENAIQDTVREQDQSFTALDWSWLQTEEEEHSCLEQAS
assay_readout: IC50

Query :: Give IC50 for the following compound: CN1CCN(C[C@@H](NC(=O)C[C@H]2CNC(=O)c3cc(-c4cccc(Cl)c4)cn32)C2CCCCC2)CC1
Result :: > 10 µM

====

assay: Clearance in BALB/c mouse at 8.2 mg/kg, iv; assay type: ADME, organism-based; design: dose 8.2 mg/kg, route intravenous; conditions: in vivo
assay_readout: clearance (mL/min/kg)
Give the value in mL/min/kg but do not write mL/min/kg after it.

Query :: Return value of clearance for input CN1CCN(C[C@@H](NC(=O)C[C@H]2CNC(=O)c3cc(-c4cccc(Cl)c4)cn32)C2CCCCC2)CC1 , no commentary.
Result :: 28

====

test: Intrinsic clearance in rat hepatocytes; type: ADME, cell-based, Hepatocyte; settings: read-out: CLH
assay_readout: CLint scaled (mL/min/kg)
Quick reminder: number only, in mL/min/kg, skip the unit.

Query :: Look up and state reported CLint scaled for CN1CCN(C[C@@H](NC(=O)C[C@H]2CNC(=O)c3cc(-c4cccc(Cl)c4)cn32)C2CCCCC2)CC1
Result :: 21

====

target: Cytochrome P450 2C9 (Homo sapiens, UniProt P11712)
Sequence (P11712 whole entry): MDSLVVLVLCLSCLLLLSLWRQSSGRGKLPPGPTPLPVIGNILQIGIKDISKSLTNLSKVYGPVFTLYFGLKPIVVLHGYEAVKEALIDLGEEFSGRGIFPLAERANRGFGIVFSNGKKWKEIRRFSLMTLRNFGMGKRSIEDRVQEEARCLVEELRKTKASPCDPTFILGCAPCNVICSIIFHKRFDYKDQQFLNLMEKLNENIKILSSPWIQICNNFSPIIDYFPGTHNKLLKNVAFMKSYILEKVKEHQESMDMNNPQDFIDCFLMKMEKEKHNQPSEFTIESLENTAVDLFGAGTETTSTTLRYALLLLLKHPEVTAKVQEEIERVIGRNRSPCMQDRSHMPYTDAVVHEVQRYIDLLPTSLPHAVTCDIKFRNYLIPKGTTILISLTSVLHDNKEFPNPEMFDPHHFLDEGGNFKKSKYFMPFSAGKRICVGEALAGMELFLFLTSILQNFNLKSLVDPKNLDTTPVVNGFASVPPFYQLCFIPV
assay_readout: IC50

Query :: Please report the measured IC50 for CN1CCN(C[C@@H](NC(=O)C[C@H]2CNC(=O)c3cc(-c4cccc(Cl)c4)cn32)C2CCCCC2)CC1 tested on Cytochrome P450 2C9 (Homo sapiens, UniProt P11712).
Result :: > 10 µM

====

molecular target: Tyrosine-protein kinase ZAP-70 (Homo sapiens, UniProt P43403)
Sequence (P43403 whole entry): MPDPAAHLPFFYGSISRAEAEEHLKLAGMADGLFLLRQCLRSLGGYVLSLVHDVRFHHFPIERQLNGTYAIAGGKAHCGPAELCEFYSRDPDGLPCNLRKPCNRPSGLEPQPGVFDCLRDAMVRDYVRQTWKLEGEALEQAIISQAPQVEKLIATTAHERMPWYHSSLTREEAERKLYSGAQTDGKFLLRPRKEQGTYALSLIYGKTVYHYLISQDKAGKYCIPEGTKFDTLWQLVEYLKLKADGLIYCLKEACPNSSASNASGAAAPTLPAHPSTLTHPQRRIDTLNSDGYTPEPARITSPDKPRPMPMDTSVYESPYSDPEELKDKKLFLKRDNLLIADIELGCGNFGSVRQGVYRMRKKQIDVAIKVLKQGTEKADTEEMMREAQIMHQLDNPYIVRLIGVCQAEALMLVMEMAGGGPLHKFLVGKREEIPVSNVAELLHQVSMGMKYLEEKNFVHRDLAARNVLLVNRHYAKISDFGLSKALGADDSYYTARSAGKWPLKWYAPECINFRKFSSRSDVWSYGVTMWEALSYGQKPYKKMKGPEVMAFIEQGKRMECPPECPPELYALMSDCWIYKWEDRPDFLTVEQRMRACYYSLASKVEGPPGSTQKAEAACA
pIC50: −log10 of the molar value.
assay_readout: pIC50

Query :: Please report pIC50 with Tyrosine-protein kinase ZAP-70 (Homo sapiens, UniProt P43403) for item CN1CCN(C[C@@H](NC(=O)C[C@H]2CNC(=O)c3cc(-c4cccc(Cl)c4)cn32)C2CCCCC2)CC1 .
Result :: < 5.00
